testedSystem: Tyrosine-protein kinase JAK3 (Homo sapiens) (UniProt P52333)
Sequence (P52333 whole entry, looked up): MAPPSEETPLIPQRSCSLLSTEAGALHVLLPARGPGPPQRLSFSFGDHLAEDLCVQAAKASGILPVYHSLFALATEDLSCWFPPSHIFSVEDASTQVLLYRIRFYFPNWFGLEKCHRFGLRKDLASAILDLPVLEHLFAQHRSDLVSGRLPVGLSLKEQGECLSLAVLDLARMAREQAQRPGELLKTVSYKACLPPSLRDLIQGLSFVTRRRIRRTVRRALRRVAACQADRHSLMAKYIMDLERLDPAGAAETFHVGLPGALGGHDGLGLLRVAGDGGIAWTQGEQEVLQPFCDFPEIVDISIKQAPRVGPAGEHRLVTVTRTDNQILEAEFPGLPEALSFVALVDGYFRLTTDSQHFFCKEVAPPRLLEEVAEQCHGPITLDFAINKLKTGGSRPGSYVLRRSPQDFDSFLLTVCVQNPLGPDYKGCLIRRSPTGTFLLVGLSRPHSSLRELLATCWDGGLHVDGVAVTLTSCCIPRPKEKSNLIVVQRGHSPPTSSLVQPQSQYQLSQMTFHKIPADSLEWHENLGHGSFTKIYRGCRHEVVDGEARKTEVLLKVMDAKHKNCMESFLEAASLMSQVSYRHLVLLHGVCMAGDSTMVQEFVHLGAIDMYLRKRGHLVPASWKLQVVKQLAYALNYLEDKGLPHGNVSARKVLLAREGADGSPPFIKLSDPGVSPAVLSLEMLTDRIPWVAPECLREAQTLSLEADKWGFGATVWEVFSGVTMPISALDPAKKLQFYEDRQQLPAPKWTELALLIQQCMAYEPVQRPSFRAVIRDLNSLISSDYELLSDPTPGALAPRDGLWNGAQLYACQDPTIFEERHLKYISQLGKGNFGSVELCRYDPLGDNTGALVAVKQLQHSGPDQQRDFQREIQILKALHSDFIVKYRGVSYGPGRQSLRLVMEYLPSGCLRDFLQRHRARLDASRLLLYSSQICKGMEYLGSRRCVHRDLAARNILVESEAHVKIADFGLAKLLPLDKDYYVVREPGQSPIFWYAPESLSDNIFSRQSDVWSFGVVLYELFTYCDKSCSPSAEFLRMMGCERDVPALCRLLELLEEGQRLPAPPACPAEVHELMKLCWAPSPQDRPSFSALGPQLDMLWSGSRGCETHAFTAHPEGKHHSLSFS
methodNotes: JAK3 kinase inhibitors, dose response, biochemical, purified enzyme (AID 1224891)
conditionsUsed: recombinant JAK3 kinase domain, 32P-ATP radiometric
measurementLabel: IC50 (µM)
Numbers only, in µM.

Look up IC50: CCOC(=O)c1c[nH]c2ncnc(-c3cc(NC(=O)CC)ccc3F)c12
1.92
